B1: HDV Ribozyme (parent)
chain: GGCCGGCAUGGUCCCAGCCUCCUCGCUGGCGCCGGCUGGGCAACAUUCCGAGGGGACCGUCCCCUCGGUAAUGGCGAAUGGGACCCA

- Variants of: B1
- assay.name: self-cleavage, relative activity (ratio to wild type); higher = more cleavage; co-transcriptional
self-cleavage below 0.3 gives false; self-cleavage at or above it gives true.

Some solved entries appear below for comparison.
[[record]]
variant_descriptor = "C3G G6C"
class_label = "false"

[[record]]
variant_descriptor = "G10A G29C"
class_label = "false"

[[record]]
variant_descriptor = "G31C C84G"
class_label = "false"

[[record]]
variant_descriptor = "C7U C84G"
class_label = "true"

[[record]]
variant_descriptor = "G59A C64G"
class_label = "true"

[[record]]
variant_descriptor = "U9A A51C"
class_label = "true"

[[record]]
variant_descriptor = "C21U U46C"
class_label = "true"

[[record]]
variant_descriptor = "G38A C63A"
class_label = "false"

[[record]]
variant_descriptor = "C61U U79G"
class_label = "true"

[[record]]
variant_descriptor = "U65C U72A"
class_label = "true"


(Q) Kindly determine if self-cleavage recorded for G17U A77G is above or exactly 0.3.
(A) false

(Q) Kindly determine if self-cleavage recorded for G1A U72A is above or exactly 0.3.
(A) false
